Quick reference: IC50 of the listed items.
Protein target, amino acids: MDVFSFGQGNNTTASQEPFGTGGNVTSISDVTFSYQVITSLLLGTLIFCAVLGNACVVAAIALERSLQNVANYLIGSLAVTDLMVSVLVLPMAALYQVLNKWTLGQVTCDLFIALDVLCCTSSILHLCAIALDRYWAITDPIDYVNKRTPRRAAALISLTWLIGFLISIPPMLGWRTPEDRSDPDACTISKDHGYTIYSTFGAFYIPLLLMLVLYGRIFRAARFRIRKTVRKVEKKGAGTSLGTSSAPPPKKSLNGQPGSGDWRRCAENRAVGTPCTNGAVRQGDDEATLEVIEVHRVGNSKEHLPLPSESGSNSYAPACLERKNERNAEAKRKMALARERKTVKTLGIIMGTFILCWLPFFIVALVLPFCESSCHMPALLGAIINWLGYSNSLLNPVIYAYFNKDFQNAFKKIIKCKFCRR

molecule: COc1ccccc1N1CCN(CCC(=O)NC(C)(C)C)CC1
IC50: 0.287 µM

molecule: COc1ccccc1N1CCN(CC(Cc2ccccc2)C(=O)NC(C)(C)C)CC1 (racemic)
IC50: 0.0114 µM

* * *

Quick reference: inhibition at 0.1 µM of the listed items.
Biological target: UniProtKB P19327
Experiment: displacement of [3H] 8-OH DPAT from the 5-HT1A serotonin receptor (procedure of Hall et al.)
Assay type: binding
Settings: at 0.1 µM; read-out: Affinity for 5HT1A Receptor % Inhibition
endpoint.label: inhibition at 0.1 µM

compound: COc1ccccc1N1CCN(CC(Cc2ccccc2)C(=O)NC(C)(C)C)CC1 (racemic)
data.value: 90%
--
compound: COc1ccccc1N1CCN(CC(C(=O)NC(C)(C)C)c2ccccc2)CC1 (racemic)
data.value: 69%
--
compound: COc1ccccc1N1CCN(CCC(=O)NC(C)(C)C)CC1
data.value: 18%
--
compound: COc1ccccc1N1CCN(CCC(=O)NC2(C)CCCCC2)CC1
data.value: 56%
